Measurement notes: Inhibition of Plasmodium falciparum SAHH
Metric: pKi
pKi is a log-scale quantity: -log10 of the concentration expressed in molar.

Reported pKi for Nc1nc(F)nc2c1ncn2[C@@H]1C[C@H]2O[C@H]2[C@H]1O : what is it? 4.84
